This listing pairs molecules with measured IC50.
- Procedure Details: cells
- Cond: Homo sapiens, HEK293
- Description: Antagonist activity at human D2 like receptor expressed in HEK293 cells assessed as inhibition of quinpirole-stimulated mitogenesis
Write the value in nM as a bare number.

1) O=C(NC/C=C/CN1CCN(c2cccc(Cl)c2Cl)CC1)c1cc2ccccc2[nH]1	175
2) COc1ccccc1N1CCN(CC(O)CCNC(=O)c2cc3ccccc3s2)CC1 (stereo not drawn)	146

Next, consider the following molecule.
input: Request the reported IC50 associated with O=C(NC/C=C/CN1CCN(c2cccc(Cl)c2Cl)CC1)c1cc2ccccc2s1
output: 254

* * *

- Study System: D(3) dopamine receptor (Homo sapiens)
- Sequence (P35462 whole entry): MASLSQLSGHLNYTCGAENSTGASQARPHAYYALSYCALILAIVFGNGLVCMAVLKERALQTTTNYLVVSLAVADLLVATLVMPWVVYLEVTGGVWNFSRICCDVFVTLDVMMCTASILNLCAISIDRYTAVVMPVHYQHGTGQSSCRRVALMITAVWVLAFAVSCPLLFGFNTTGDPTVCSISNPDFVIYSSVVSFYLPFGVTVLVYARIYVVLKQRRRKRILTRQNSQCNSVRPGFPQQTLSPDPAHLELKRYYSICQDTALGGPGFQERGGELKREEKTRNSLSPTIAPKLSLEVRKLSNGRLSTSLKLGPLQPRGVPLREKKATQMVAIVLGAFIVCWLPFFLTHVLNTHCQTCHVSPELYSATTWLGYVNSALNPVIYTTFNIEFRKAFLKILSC
- Procedure Details: biochemical
Recorded Ki, one value per entry.
Please reply with the bare figure in nM and do not write the unit itself.

Please review the entries below; each comes with its answer.
1. COc1ccccc1N1CCN(CC(O)CCNC(=O)c2cc3cc(I)ccc3[nH]2)CC1 (stereo not drawn)	3.6
2. COc1ccccc1N1CCN(CCC(O)CNC(=O)c2cc3ccccc3[nH]2)CC1 (stereo not drawn)	0.51
3. O=C(NC/C=C/CN1CCN(c2cccc(Cl)c2Cl)CC1)c1cc2ccccc2[nH]1	0.44
4. O=C(NCCC(O)CN1CCN(c2cccc(Cl)c2Cl)CC1)c1cc2cc(I)ccc2[nH]1 (stereo not drawn)	5.21
5. COc1ccc2[nH]c(C(=O)NCCC(O)CN3CCN(c4cccc(Cl)c4Cl)CC3)cc2c1 (stereo not drawn)	1.2
6. O=C(NCCC(O)CN1CCN(c2cccc(Cl)c2Cl)CC1)c1cc2ccccc2o1 (stereo not drawn)	6.11

input: // returns reported Ki for input COc1ccc2[nH]c(C(=O)NCCC(O)CN3CCN(c4ccccc4OC)CC3)cc2c1 (stereo not drawn)
output: 2.32

input: Which Ki reading was recorded for the molecule COc1ccccc1N1CCN(CC(O)CCNC(=O)c2cc3ccccc3o2)CC1 (stereo not drawn) ?
output: 7.51

Source of measurements: ChEMBL document CHEMBL1153455
